I'd appreciate it if you could supply MIC values for the items below.
System: Staphylococcus aureus 1756

N[C@@H]1CC=C[C@@H]2CN(c3c(F)cc4c(=O)c(C(=O)O)cn(C5CC5)c4c3F)C[C@@H]12 (relative stereo)
0.0039 µg/mL
N[C@@H]1CC=C[C@@H]2CN(c3cc4c(cc3F)c(=O)c(C(=O)O)cn4C3CC3)C[C@@H]12 (relative stereo)
≤ 0.015 µg/mL
CN[C@@H]1CC=C[C@@H]2CN(c3c(F)cc4c(=O)c(C(=O)O)cn(C5CC5)c4c3F)C[C@H]21 (relative stereo)
≤ 0.015 µg/mL

Go through the items and report each one's MIC.
1. Nc1c(F)c(N2C[C@H]3[C@H](N)CC=C[C@@H]3C2)c(F)c2c1c(=O)c(C(=O)O)cn2C1CC1 (relative stereo)
2. Nc1cccc2c1CN(c1c(F)cc3c(=O)c(C(=O)O)cn(C4CC4)c3c1F)C2 [*, reference compound]
3. CC1COc2c(N3C[C@H]4[C@H](N)CC=C[C@@H]4C3)c(F)cc3c(=O)c(C(=O)O)cn1c23 (stereo partly shown)

Key:
≤ 0.015 µg/mL
0.03 µg/mL
0.0078 µg/mL

Exercise: Name the reported MIC value associated with the molecule N[C@@H]1CC=C[C@@H]2CN(c3c(F)cc4c(=O)c(C(=O)O)cn(C5CC5)c4c3Cl)C[C@@H]12 (relative stereo)
Key: ≤ 0.0019 µg/mL
